System: P. aeruginosa RST-1 (AAC(3)-III)
Assay: Antibiotic activity (MIC), Table 1
Assay type: cell-based
Conditions: Pseudomonas aeruginosa, read-out: MIC
Give measured MIC for each item. Keep answers brief.
Report the value in µg/mL with no unit label.

Q: Query MIC on P. aeruginosa RST-1 (AAC(3)-III) for CNC1C(OC)CC(N)C(OC2OC(C(C)N)CCC2N)C1O (centres unmarked) [KA-6606VIII, reference compound]
Result: 100

Q: Please do the same for CNC1C(OC)CC(N)C(OC2OC(C(C)N)CCC2NC(=O)C[C@@H](N)CCCN)C1O (some centres unmarked) as well.
Result: 100

* * *

Give measured MIC for each item. Keep answers brief.
Tested on: P. aeruginosa RST-1 (AAC(3)-III)
Assay: Antibiotic activity (MIC), Table 1
Assay type: cell-based
Settings: Pseudomonas aeruginosa, read-out: MIC

Q: What does the record list as MIC for CNCC1CCC(N)C(OC2C(N)CC(OC)C(NC)C2O)O1 (stereo not drawn) [KA-7038VI, reference compound] ?
Result: > 100 µg/mL

Q: Please do the same for CNCC1CCC(NC(=O)C[C@@H](N)CCCN)C(OC2C(N)CC(OC)C(NC)C2O)O1 (stereo partly drawn) [2'-N-β-Lysyl KA-7038VI, 2'-N-(L-β-lysyl)-KA-7038VI] as well.
Result: > 100 µg/mL

Q: Please do the same for CNC1C(O)CC(N)C(OC2OC(C(C)N)CCC2NC(=O)C[C@@H](N)CCCN)C1O (stereo partly drawn) as well.
Result: > 100 µg/mL
